Assay: Body weight and food intake in C57BL/6 mice, fusion protein conjugates, 30 nmol/kg daily 10 days
Type: in vivo
Protocol: 10 week old male C57BL/6 mice were injected everyday subcutaneously with 15 nmol/kg of the fusion protein conjugates (i.e., MLC002, MLC 004, MLC 005, MLC 006, MLC 007, MLC 008, and MLC 009) for 14 days. Food intake and body weight were measured daily and five animals were used for each treatment group. Body weight (BW) was monitored for each individual animal, but food intake for each group animals was measured together. […] Data were calculated in the same way as described above. […]
assay_metric: Cumulative food intake reduction at 30 nmol/kg (% reduction compared to vehicle)(Day11) (%)
Note: unit % is implicit; provide only the numeric part.

molecule	recorded_number
MLC043: fusion polypeptide SEQ ID NO: 326 conjugated with Moiety A at 26K of GLP-1 (conjugate, Moiety A conjugated at K26) HGEGTFTSDVSSYLEEQAAKEFIAWLVRGGGGQEPGAQPGQEPGAQPGQEPGAQPGQEPGAQPGQEPGAQPGQEPGAQPGAQPGAQPGAQPARQGDHCPLGPGRCCRLHTVRASLEDLGWADWVLSPREVQVTMCIGACPSQFRAANLHAQIKTSLHRLRPDTVPAPCCVPASYNPMVLIQRTDTGVSLQTYDDLLARDCHCI	30.5

Now for another entry.
Supply Cumulative food intake reduction at 30 nmol/kg (% reduction compared to vehicle)(Day11) value. Item: MLC030: fusion polypeptide SEQ ID NO: 277 conjugated with Moiety A at 15K of Linker (conjugate, Moiety A conjugated at linker K15) HGEGTFTSDVSSYLEEQAAREFIAWLVRGGGGQEPGQEPGQEPGQKPGQEPGQEPGQEPGQEPGAQPGAQPGAQPGAQPGAQPGAQPGAQPGAQPGAQPGAQPGAQPGAQPARQGDHCPLGPGRCCRLHTVRASLEDLGWADWVLSPREVQVTMCIGACPSQFRAANLHAQIKTSLHRLRPDTVPAPCCVPASYNPMVLIQRTDTGVSLQTYDDLLARDCHCI
29.1
